experiment: NCI Yeast Anticancer Drug Screen. Data for the bub3 strain (AID 167); conditions: S. cerevisiae bub3 mutant strain, at 5.0 µM (retest, dose inferred, filed as 0.5)
About 79,000 compounds went through this panel and 15% of them were active in at least one assay; those are over-represented in the sample as a whole. Calls of active or inactive are those of the source. No stated cut-off is given here; in the data, active means growth inhibition above about 70%; inactive means the rest.
Bench note: report the call from YES (active), NO (inactive)

# fetch the recorded call for CC1=C(Cl)C[C@@H](/C(C)=C\Cl)O[C@@]1(O)C(Br)Br here NO

Next: O=C1/C(=C\c2ccc([N+](=O)[O-])cc2)CS(=O)(=O)C/C1=C/c1ccc([N+](=O)[O-])cc1 YES

Next entry: O=C(C[P+](c1ccccc1)(c1ccccc1)c1ccccc1)c1ccccc1 NO

What about N#CC(c1ccccc1)C(c1ccccc1)c1ccccc1 (stereo unspecified) ? NO

One more compound: CC1=NN(c2ccccc2)C(=O)C1(Br)Br NO

// next record CCCCC(C=O)(C=C=C(C)C)CC (stereo unspecified) NO
